- System: NCI-H460
- assay_summary: NCI tumour cell line growth inhibition, 48 h
Activity calls are given as the source filed them. Cut-off read from the data, not from the text of the source: active = GI50 up to about 1.1 µM and inactive = higher.
# valid calls are active, inactive; nothing else

- compound: "CC(C)(C)n1[nH]c(=O)n(C(C)(C)C)c1=O"
  class_assignment: "inactive"
- compound: "COC(=O)[C@@H](O)[C@](O)(CCC(C)C)C(=O)O[C@@H]1C(OC)=C[C@]23CCCN2CCc2cc4c(cc2[C@H]13)OCO4"
  class_assignment: "active"
- compound: "CN(C)CC1CCCC(CN(C)C)C1OC(=O)c1ccccc1 (stereo unspecified)"
  class_assignment: "inactive"

Inquiry: Call for entry Cc1nc(-n2nc(-c3ccccc3)cc2-c2ccccc2)sc1C(=O)/C=C/c1ccccc1 :
Reply text: inactive
